molecular target: hMAO-B (Homo sapiens, UniProt P27338); test: MAO-B inhibition, fluorometric method; format: biochemical
Sequence (P27338 whole entry): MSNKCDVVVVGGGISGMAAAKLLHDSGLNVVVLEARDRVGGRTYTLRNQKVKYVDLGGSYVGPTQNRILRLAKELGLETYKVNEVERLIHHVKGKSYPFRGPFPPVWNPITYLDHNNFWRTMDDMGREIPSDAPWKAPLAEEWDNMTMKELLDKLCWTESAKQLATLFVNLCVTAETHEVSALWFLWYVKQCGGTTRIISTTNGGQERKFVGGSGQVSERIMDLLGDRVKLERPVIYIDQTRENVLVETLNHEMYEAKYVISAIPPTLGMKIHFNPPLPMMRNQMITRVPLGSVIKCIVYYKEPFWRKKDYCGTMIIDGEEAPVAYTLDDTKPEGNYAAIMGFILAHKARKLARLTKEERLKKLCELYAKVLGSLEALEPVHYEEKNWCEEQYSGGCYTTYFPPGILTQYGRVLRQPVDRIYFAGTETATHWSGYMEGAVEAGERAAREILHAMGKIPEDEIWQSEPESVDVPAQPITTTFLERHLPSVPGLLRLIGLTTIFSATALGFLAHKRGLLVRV
Satisfied if IC50 is below 100 nM. Not satisfied if not; exact matches included in Not satisfied.

Worked examples, 4 compounds total:
O=C(CC1CC(=O)N(CCCSc2nnc(Cc3ccccc3Nc3c(Cl)cccc3Cl)n2-c2ccc(Cl)c(Cl)c2)C1=O)c1ccccc1 (centres unmarked)    Not satisfied
COc1ccc(C(=O)CC2CC(=O)N(CCCSc3nnc(Cc4ccccc4Nc4c(Cl)cccc4Cl)n3-c3ccc(Cl)c(Cl)c3)C2=O)cc1 (centres unmarked)    Satisfied
NS(=O)(=O)c1ccc(N2N=C(c3ccc(NC(=O)Cc4ccccc4Nc4c(Cl)cccc4Cl)cc3)CC2c2ccc(Cl)cc2)cc1 (centres unmarked)    Satisfied
NS(=O)(=O)c1ccc(NCSc2nnc(Cc3ccccc3Nc3c(Cl)cccc3Cl)n2-c2ccc(Cl)c(Cl)c2)cc1    Not satisfied

Next item in the queue.
Input: Confirm or reject: IC50 of Sc1nnc(Cc2ccccc2Nc2c(Cl)cccc2Cl)n1-c1ccc(Cl)c(Cl)c1 lies strictly below 100 nM
Output: Not satisfied
